Tested on: PCSK9 gene
TEST METHOD NOTES: PCSK9 gRNA/SpCas9 editing in primary cynomolgus hepatocytes (Tables 2, 22)
Format: cell-based, cynomolgus monkey
ASSAY CONTEXT: SpCas9 mRNA MS002, 1250 ng/test article/mL, rep1
In the oligonucleotide strings, read from the 5' end, every base follows the letter of its sugar. An asterisk marks phosphorothioate; unmarked linkages are phosphodiester. Other units and linkages are bracketed, terminal groups are in braces. A string of capitals states the bases alone. m = 2'-O-methyl; r = 2'-OH (RNA)
EXPERIMENTAL ENDPOINT: Cynomolgus Primary Hepatocytes-% Editing (%)

>>> quantitative_result("GA399 (nucleic acid) guide: mU*mC*mA*rGrCrUrCrCrArGrGrCrGrGrUrCrCrUrGrGmGrUrUrUrUrArGmAmGmCmUmAmGmAmAmAmUmAmGmCmAmArGrUrUmArAmArAmUrAmAmGmGmCmUmArGmUrCmCrGrUrUmAmUmCrArAmCmUmUmGmAmAmAmAmAmGmUmGmGmCmAmCmCmGmAmGmUmCmGmGmUmGmCmU*mU*mU*mUmUmUmU")
55.55
>>> quantitative_result("GA408 (nucleic acid) guide: mU*mC*mA*rGrCrUrCrCrArGrGrCrGrGrUrCrCrUrGrGmGrUrUrUrUrArGmAmGmCmUmAmGmAmAmAmUmAmGmCmAmArGrUrUmArAmArAmUrAmAmGmGmCmUmArGrUmCmCrGrUrUrAmUmCrArAmCmUmUmGmAmAmAmAmAmGmUmGrGmCmAmCmCmGmAmGmUmCmGmGmUmGmCmU*mU*mU*mUmUrUmU")
47.21
>>> quantitative_result("GA406 (nucleic acid, listed as RNA; modified_base 1: mod_base = OTHER; note = 2'-O-Methyl-uridine phosphorothioate; modified_base 2: mod_base = OTHER; note = 2'-O-Methyl-cytidine phosphorothioate; modified_base 3: mod_base = OTHER; note = 2'-O-Methyl-adenosine phosphorothioate;) guide: TCAGCTCCAGGCGGTCCTGGGTTTTAGAGCTAGAAATAGCAAGTTAAAATAAGGCTAGTCCGTTATCAACTTGAAAAAGTGGCACCGAGTCGGTGCTTTTTTT")
45.11
